Target: human PD-L1 (human) (UniProt Q9NZQ7)
Sequence (Q9NZQ7 19-290): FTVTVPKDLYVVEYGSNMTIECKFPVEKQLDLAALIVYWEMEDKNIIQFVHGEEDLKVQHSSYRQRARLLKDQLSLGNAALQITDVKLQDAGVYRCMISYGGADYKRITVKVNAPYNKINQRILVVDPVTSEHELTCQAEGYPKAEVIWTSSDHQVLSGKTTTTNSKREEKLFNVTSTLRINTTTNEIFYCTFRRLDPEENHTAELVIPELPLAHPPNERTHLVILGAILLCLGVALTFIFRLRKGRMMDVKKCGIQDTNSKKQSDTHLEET
Experiment: flow cytometry, CHO cells expressing huPD-L1; MFI ratio to WT CD80 ECD-Fc (R&D)
measuredAttribute: Fold change to WT (fold)

Worked cases, answers included:
binder	unitOfMeasurement	recordedNumber
variant CD80 IgV-Fc Q33L/E35D/M47I (Fc fusion) VIHVTKEVKEVATLSCGHNVSVEELAQTRIYWLKDKKMVLTMMSGDINIWPEYKNRTIFDITNNLSIVILALRPSDEGTYECVVLKYEKDAFKREHLAEVTLSVKAD	fold	4.7
variant CD80 IgV-Fc E35D/D46E/M47V/L97Q (Fc fusion) VIHVTKEVKEVATLSCGHNVSVEELAQTRIYWQKDKKMVLTMMSGEVNIWPEYKNRTIFDITNNLSIVILALRPSDEGTYECVVLKYEKDAFKREHQAEVTLSVKAD	fold	2.45

(A) variant CD80 IgV-Fc Q33L/E35D/M47L/A71G/F92S (Fc fusion) VIHVTKEVKEVATLSCGHNVSVEELAQTRIYWLKDKKMVLTMMSGDLNIWPEYKNRTIFDITNNLSIVILGLRPSDEGTYECVVLKYEKDASKREHLAEVTLSVKAD
(B) variant CD80 IgV-Fc E35D/M47I/E77A/L85Q/R94W (Fc fusion) VIHVTKEVKEVATLSCGHNVSVEELAQTRIYWQKDKKMVLTMMSGDINIWPEYKNRTIFDITNNLSIVILALRPSDAGTYECVVQKYEKDAFKWEHLAEVTLSVKAD
Kindly identify the item with the lower Fold change to WT figure among these two: A and B Refer to your chosen entry by its label in the reply. A
(A: 3.53 fold, B: 8.12 fold)

The reported measurements were obtained from patent US20220177587A1.
